B1: HEEH_KT_rd6_0007 (parent)
chain: SIEEEIKKAEEAKEKGKTFIHGDFVATTEELLDELLKRLRKKL

Variants of: B1
Experiment: folding stability dG (cDNA display proteolysis); higher = more stable
Settings: PBS, room temperature
Kindly return Criterion met if reported folding stability dG is no lower than 1 kcal/mol; return Criterion not met if it is lower.

Worked examples follow.
SIEEEIKKAEEAKEKGKTFIHVDFVATTEELLDELLKRLRKKL [G22V]; Criterion met
SIEEEIKKAEEAKEKGKTFIHGDFVATTEELLDELLKRGRKKL [L39G]; Criterion not met
SIEEEIKKAEEAKEKGKTFIHGDFVATTKELLDELLKRLRKKL [E29K]; Criterion met
RIEEEIKKAEEAKEKGKTFIHGDFVATTEELLDELLKRLRKKL [S1R]; Criterion met
SIEEEIKKAEEAKEKGETFIHGDFVATTEELLDELLKRLRKKL [K17E]; Criterion met

### Prompt Check if folding stability dG >= 1 kcal/mol (inclusive). Item: SIIEEIKKAEEAKEKGKTFIHGDFVATTEELLDELLKRLRKKL [E3I]
### Response Criterion met

### Prompt Check if folding stability dG >= 1 kcal/mol (inclusive). Item: SIEEEIKKAEEAKEKGKTFIHGDFVATTEELLDELLKRLRKKQ [L43Q]
### Response Criterion not met

### Prompt Check if folding stability dG >= 1 kcal/mol (inclusive). Item: SIEEEIKKAEEAKEKVKTFIHGDFVATTEELLDELLKRLRKKL [G16V]
### Response Criterion not met

### Prompt Check if folding stability dG >= 1 kcal/mol (inclusive). Item: SIEEEIKKAEEAKEKGKTFIHGDFVNTTEELLDELLKRLRKKL [A26N]
### Response Criterion not met

### Prompt Check if folding stability dG >= 1 kcal/mol (inclusive). Item: SIEEEIKKAEEAKEKGKTFIHGDFVATTEELFDELLKRLRKKL [L32F]
### Response Criterion met

### Prompt Check if folding stability dG >= 1 kcal/mol (inclusive). Item: SIEEEIKKAEEAKEKGKTFIHGWFVATTEELLDELLKRLRKKL [D23W]
### Response Criterion met

### Prompt Check if folding stability dG >= 1 kcal/mol (inclusive). Item: SIEEEIKKAEEAKEKGKTFIHGDFVATTEELLDELLKRARKKL [L39A]
### Response Criterion not met

### Prompt Check if folding stability dG >= 1 kcal/mol (inclusive). Item: SIEEEIKKAEEAKEKGKTFIHGDFVATTEELNDELLKRLRKKL [L32N]
### Response Criterion not met

### Prompt Check if folding stability dG >= 1 kcal/mol (inclusive). Item: SIEEEIKKAEEAKEKGKTFFHGDFVATTEELLDELLKRLRKKL [I20F]
### Response Criterion not met

### Prompt Check if folding stability dG >= 1 kcal/mol (inclusive). Item: SIEEEIKKAEEAKEKGKTHIHGDFVATTEELLDELLKRLRKKL [F19H]
### Response Criterion not met

### Prompt Check if folding stability dG >= 1 kcal/mol (inclusive). Item: SIEEEIKKAEEAKEKGKTFIHGDFVATWEELLDELLKRLRKKL [T28W]
### Response Criterion met

Provenance of the data: the MegaScale stability set (Tsuboyama et al. 2023)
